tested on: MHC-I expression by COLO 205 cells; assay: cells; type: cell-based, human; settings: MHC-I expression, COLO 205 cells, compounds at 35 μM, 48 hours, flow cytometry (W6/32)
RESULT TYPE: Induction Fold (Fold)
Kindly answer with a numeric value in Fold, unit omitted.

Reference set, count: 4
O=C(NC12CC3CC(CC(C3)C1)C2)c1cn(CCCCCF)c2ccccc12 ... 1.31
COC(=O)[C@@H](NC(=O)c1cn(CC2CCCCC2)c2ccccc12)C(C)(C)C ... 3.35
O=C(Oc1cccc2cccnc12)c1nn(CCCCCF)c2ccccc12 ... 1.36
CN1CCCCC(n2cc(C(=O)C34CC5CC(CC(C5)C3)C4)c3ccccc32)C1 (centres unmarked) ... 2.46

For the next question, use this compound.
**Q:** Value lookup for Induction Fold; key = CCCCCCN1C(=O)/C(=N\NC(=O)c2ccccc2)c2ccccc21
**A:** 2.29

----------
Below, each of the molecules is paired with its reported fold induction at 35 µM value.
test system: MHC-I expression by COLO 205 cells; test: cells; assay type: cell-based, human; details: Homo sapiens, COLO 205, 48 h, MHC-I expression, COLO 205 cells, compounds at 35 μM, 48 hours, flow cytometry (W6/32); read-out: Induction Fold
// keep it numeric: no unit symbol after the value

CC(C)[C@H](NC(=O)c1nn(CCCCCF)c2ccccc12)C(N)=O ... 1.43
CC(C)[C@H](NC(=O)c1cn(Cc2ccccc2)c2ccccc12)C(N)=O ... 1.26
CCCCCCCn1cc(C(=O)C2C(C)(C)C2(C)C)c2ccccc21 ... 2.33
Cc1ccc(C(=O)c2cn(CCCC(C)F)c3ccccc23)c2ccccc12 (centres unmarked) ... 2.16

**Q:** Recorded fold induction at 35 µM of Cc1ccc(C(=O)c2cn(CCCCCF)c3ccccc23)c2ccccc12 , please.
**A:** 2.08

----------
Entries and their measured fold induction at 35 µM follow.
tested on: MHC-I expression by COLO 205 cells; assay: cells; format: cell-based, human; details: Homo sapiens, COLO 205, 48 h, MHC-I expression, COLO 205 cells, compounds at 35 μM, 48 hours, flow cytometry (W6/32); read-out: Induction Fold

// worked examples, fold induction at 35 µM included
CN1CCCCC(Cn2cc(C(=O)c3cccc4ccccc34)c3ccccc32)C1 (stereo not drawn) [Example 6] ... 5.6
CC(C)[C@H](NC(=O)c1nn(Cc2ccccc2F)c2ccccc12)C(N)=O [Example 143] ... 2.19
O=C(Oc1cncc2ccccc12)c1cn(CCCCCF)c2ccccc12 [Example 19] ... 4.06

**Q:** Item CCCCCn1c2ccccc2c2cc(C(=O)c3cccc4ccccc34)ccc21 [Example 315] with MHC-I expression by COLO 205 cells - fold induction at 35 µM?
**A:** 1.32

**Q:** Note, next up: CCC(C)n1cc(C(=O)c2cccc3ccccc23)c2ccccc21 (stereo not drawn) [Example 127]
**A:** 2.29

**Q:** Follow-up entry: O=C(c1cccc2ccccc12)c1nn(CCCCCBr)c2ccccc12 [Example 97]
**A:** 2.44

**Q:** // query: O=C(c1ccc(F)c2ccccc12)c1cn(CCCCCF)c2ccccc12 [Example 112]
**A:** 2.37

**Q:** Would you kindly repeat that for O=C(c1cccc2ccccc12)c1nn(CCCCCCl)c2ccccc12 [Example 142] ?
**A:** 2.19

----------
tested on: MHC-I expression by COLO 205 cells; experiment: cells; assay type: cell-based, human; conditions: Homo sapiens, COLO 205, 48 h, MHC-I expression, COLO 205 cells, compounds at 35 μM, 48 hours, flow cytometry (W6/32); read-out: Induction Fold
Structures can show the parent of a compound that is named as a salt.
Label 1.0 when fold induction at 35 µM < 2; otherwise 0.0.

Take a look at these entries with their results.
O=C(Oc1ccc2ccncc2c1)c1cn(CCCCCF)c2ccccc12 [Example 340] ... 1.0
O=C(c1cccnc1)c1cn(CCCCCF)c2ccccc12 [Example 116, monohydrochloride] ... 0.0

**Q:** Does this molecule meet the criterion fold induction at 35 µM < 2? CCCCCCC(C)(C)c1ccc([C@@H]2CCC[C@H](O)C2)c(O)c1 [Example 39]
**A:** 0.0

**Q:** Same thing, different molecule: CCCCCn1c(C)c(C(=O)c2ccc(OC)c3ccccc23)c2ccccc21 [Example 372]
**A:** 1.0

**Q:** // next record CCCCCn1cc(C(=O)Oc2ccc3ccncc3c2)c2ccccc21 [Example 274]
**A:** 1.0

**Q:** Subsequent entry: COc1ccc(CC(=O)c2cn(CCC3CCCCC3)c3ccccc23)cc1 [Example 44]
**A:** 0.0

**Q:** Then COc1ccc(C(=O)c2cn(CC3CCCCC3)c3ccccc23)c2ccccc12 [Example 253] ?
**A:** 1.0

**Q:** Next: CCCC(F)Cn1cc(C(=O)c2cccc3ccccc23)c2ccccc21 (stereo not shown) [Example 104]
**A:** 0.0

**Q:** Next molecule up: CCCCCn1c(C)c(C(=O)c2ccc(C)c3ccccc23)c2ccccc21 [Example 326]
**A:** 1.0

**Q:** Request: CCCCCn1cc(C(=O)Cc2ccccc2)c2ccccc21 [Example 80]
**A:** 0.0

**Q:** Another molecule to check: O=C(Oc1cccc2ncccc12)c1cn(CCCCCF)c2ccccc12 [Example 158]
**A:** 0.0

**Q:** Proceed to O=C(Oc1ccc2cnccc2c1)c1cn(CC2CCCCC2)c2ccccc12 [Example 327]
**A:** 1.0

**Q:** Lookup CNCC(C)Cc1ccc2c(c1)OCO2 (stereo not shown) [Example 348, monohydrochloride]
**A:** 1.0

**Q:** And then CCCCCn1cc(-c2nc(CN(CCOC)C(C)C)cs2)c2ccccc21 [Example 369, monohydrochloride] , what is it?
**A:** 1.0

**Q:** How about O=C(c1cn(CCCCCF)c2ccccc12)N1CCCC1 [Example 215] ?
**A:** 1.0

**Q:** Request: CC(F)CCCn1cc(C(=O)C2C(C)(C)C2(C)C)c2ccccc21 (stereo not shown) [Example 235]
**A:** 1.0

**Q:** Now this one: CCC(F)CCn1nc(C(=O)NC(C(N)=O)C(C)C)c2ccccc21 (stereo not shown) [Example 335]
**A:** 1.0

**Q:** Please do the same for O=C(c1cn(CCCCCF)c2ccccc12)C12CC3CC(CC(C3)C1)C2 [Example 160] as well.
**A:** 0.0

**Q:** Now consider CCC(C)n1cc(C(=O)c2ccc3ccccc3c2)c2ccccc21 (stereo not shown) [Example 350] .
**A:** 1.0

**Q:** Next entry: CC(C)(NC(=O)c1c2ccccc2nn1CCCCC#N)c1ccccc1 (single isomer, unassigned) [Example 299]
**A:** 1.0

**Q:** Can you check O=C(Oc1cccc2ccncc12)c1cn(CCCCCF)c2ccccc12 [Example 16] next?
**A:** 0.0

**Q:** Proceed to O=C(Nc1cccc2ccccc12)c1cn(CCCCCF)c2ccccc12 [Example 286]
**A:** 1.0

**Q:** What do you have for CC(C)(O)CCn1c(=O)n(C(=O)N[C@H](C(N)=O)C(C)(C)C)c2ccccc21 [Example 345] ?
**A:** 1.0

**Q:** Then what about the molecule CCCCCC(C)(C)c1ccc([C@H]2CCC[C@@H](O)C2)c(O)c1 (relative stereo) [Example 209] ?
**A:** 1.0

**Q:** Now try CCCCCn1nc(C(=O)Oc2cccc3cccnc23)c2ccccc21 [Example 258] .
**A:** 1.0

**Q:** Cool, now CCCCCn1cc(C(=O)c2c(CC)ccc3ccccc23)c2ccccc21 [Example 89]
**A:** 0.0

**Q:** Likewise for CCCCCn1cc(C(=O)c2ccc3ccccc3c2)c2ccccc21 [Example 259] ?
**A:** 1.0

----------
fold induction at 35 µM overview
tested on: MHC-I expression by COLO 205 cells; test: cells; type: cell-based, human; settings: Homo sapiens, COLO 205, 48 h, MHC-I expression, COLO 205 cells, compounds at 35 μM, 48 hours, flow cytometry (W6/32); read-out: Induction Fold

Some entries whose results are on file:
CCCCCn1cc(C(=O)Nc2cccc3ccccc23)c2ccccc21 ... 1.23
CCCCCn1cc(C(=O)Cc2cccc(C)c2)c2ccccc21 ... 2.02
CCCC(NC(=O)c1nn(Cc2ccc(F)cc2)c2ccccc12)C(N)=O (single isomer, unassigned) ... 2.01
CCCCCn1cc(C(=O)c2cc(OC)cc3ccccc23)c2ccccc21 ... 1.71
CCCC(F)Cn1nc(C(=O)NC(C(N)=O)C(C)C)c2ccccc21 (stereo not drawn) ... 1.31
CCCCCn1cc(C(=O)c2cccc3ccc(CC)cc23)c2ccccc21 ... 1.72
CCCCCn1cc(C(=O)c2ccc(CC)c3ccccc23)c2ccccc21 ... 1.93
CCCCCn1cc(C(=O)c2ccc(CCC)c3ccccc23)c2ccccc21 ... 2.03
CCCCCCC(C)(C)c1ccc([C@H]2C[C@@H](O)CC[C@@H]2CCCO)c(O)c1 ... 0.89
CCC(F)CCCn1cc(C(=O)c2cccc3ccccc23)c2ccccc21 (stereo not drawn) ... 1.98

**Q:** May I ask what fold induction at 35 µM has been recorded for CCCCCn1cc(C(=O)N[C@H](C(=O)OC)C(C)C)c2ccccc21 ?
**A:** 1.24

**Q:** CC(C)[C@H](NC(=O)c1cc(-c2ccc(F)cc2)n(CC2CCCCC2)n1)C(N)=O ?
**A:** 1.14

**Q:** Next: O=C(NCc1ccccc1)c1cn(CCCCCF)c2ccccc12
**A:** 1.38

**Q:** Same question for CCCCCn1cc(C(=O)c2ccc(C)c3ccccc23)c2ccccc21 please.
**A:** 1.83

**Q:** What do we get for CCCC(F)Cn1cc(C(=O)C2C(C)(C)C2(C)C)c2ccccc21 (stereo not drawn) ?
**A:** 2.11

**Q:** Param item: NC(=O)[C@H](Cc1ccccc1)NC(=O)c1cn(CCCCCF)c2ccccc12
**A:** 1.55

**Q:** Moving on to the next molecule: O=C(c1cccc2ccccc12)c1nc2ccccc2n1CCCCCF
**A:** 3.14

**Q:** // query: CCCCCCC(C)(C)c1cc(O)c2c(c1)OC(C)(C)[C@@H]1CC=C(CO)C[C@@H]21
**A:** 0.21

**Q:** Do the same for CCCCCn1cc(C(=O)c2ccccc2OC)c2ccccc21 please
**A:** 3.98

**Q:** Also, O=C(Oc1cccc2cnccc12)c1cn(CC2CCCCC2)c2ccccc12 please.
**A:** 2.04

**Q:** Same again, this time with NC(=O)[C@H](Cc1ccccc1)NC(=O)c1nn(Cc2ccc(F)cc2)c2ccccc12
**A:** 1.81

**Q:** Same again, this time with CCCCCn1nc2ccccc2c1C(=O)Nc1cccc2ccccc12
**A:** 1.43

Cited source for all entries: patent US20210038559A1
